The values you see were collected from paper PMC5441103.

Record: Simultaneous treatment SI (selective index; CC50mean/IC50mean) reported on influenza A/Sydney/5/97 (H3N2).
Answers are plain numbers.

Here are 4 compounds together with their reported answers.
COc1cc(O)c2c(ccc3c(OC)c(O)ccc32)c1-c1c(OC)cc(O)c2c1ccc1c(OC)c(O)ccc12	5.5
COc1ccc2c(ccc3c(-c4c(OC)cc(O)c5c4ccc4cc(O)ccc45)c(OC)cc(O)c32)c1	4.5
COc1ccc2c(ccc3c(-c4c(O)cc(OC)c5c4CCc4cc(O)ccc4-5)c(O)cc(OC)c32)c1	2.3
COc1ccc2c(ccc3c(-c4c(O)c(OC)cc5c4CCc4cc(O)cc(OC)c4-5)c(O)cc(OC)c32)c1	2.5

Now let's try a different one.
## Input Quick one: Simultaneous treatment SI (selective index; CC50mean/IC50mean) of COc1cc(O)c2c(ccc3cc(O)ccc32)c1-c1c(OC)cc(O)c2c1ccc1cc(O)ccc12 ?
## Output 3.1
